protocolSummary: DRUGMATRIX: GABAA, Chloride Channel, TBOB radioligand binding (ligand: [3H] TBOB)
Type: cell membranes, Rattus norvegicus, Wistar, Cerebral cortex, Membrane
recordedConditions: Not Active = under 50% inhibition at 10 µM

| molecule | IC50 |
| --- | --- |
| CC1(C)S[C@@H]2[C@H](NC(=O)[C@H](N)c3ccc(O)cc3)C(=O)N2[C@H]1C(=O)O | Not Active |
| C=C1[C@@H]2CCC3[C@@](CC[C@@H]4[C@H](C(=O)O)C[C@@H](O[C@@H]5O[C@H](CO)[C@@H](OS(=O)(=O)[O-])[C@H](OS(=O)(=O)[O-])[C@H]5OC(=O)CC(C)C)C[C@@]34C)(C2)[C@@H]1O.[K+].[K+] (stereo partly drawn) [ATRACTYLOSIDE] | Not Active |
| NC(=O)c1ncn([C@@H]2O[C@H](CO)[C@@H](O)[C@H]2O)n1 | Not Active |

Value source: ChEMBL document CHEMBL1909046
